- Target under test: BRC4–RAD51 interaction (Homo sapiens, UniProt Q06609)
- Construct: purchased Creative Biomart (RAD51); Life Technologies (BRC4 peptide)
- Assay procedure: Competitive biochemical ELISA assay (biotinylated BRC4 peptide vs RAD51)
- Assay type: binding
- Test settings: competition with BRC4 for RAD51; triplicate, ± standard deviation; NA = not active; racemic mixtures unless enantiomer named; read-out: EC50 (μM) on ELISA assay
Observed property: EC50
Please answer using a numeric value trailed by its unit.

Problem: Find the recorded EC50 belonging to CC(=O)N1N=C(c2c(-c3ccccc3)c3cc(Cl)ccc3[nH]c2=O)CC1c1ccc(C(C)(C)C)cc1 (stereo not shown) [Compound 39d] and report it.
Result: 15 µM

Problem: Find the recorded EC50 belonging to CCn1ccc2cc(C3CC(c4c(-c5ccccc5)c5cc(Cl)ccc5[nH]c4=O)=NN3C(C)=O)ccc21 (stereo not shown) [Compound 46d] and report it.
Result: 50 µM

Problem: Find the recorded EC50 belonging to CC(=O)N1N=C(c2c(-c3ccccc3)c3cc(Cl)ccc3[nH]c2=O)CC1c1ccc(Cl)cc1 (stereo not shown) [Compound 36d] and report it.
Result: 10 µM

Problem: Find the recorded EC50 belonging to CC(=O)N1N=C(c2c(-c3ccccc3)c3cc(Cl)ccc3[nH]c2=O)CC1c1ccc(-c2ccc(Cl)cc2)cc1 (stereo not shown) [Compound 42d] and report it.
Result: 45 µM

Problem: Find the recorded EC50 belonging to CCC(=O)N1N=C(c2c(-c3ccccc3)c3cc(Cl)ccc3[nH]c2=O)CC1c1ccc(Cl)cc1 (stereo not shown) [Compound 33d] and report it.
Result: 8 µM

Problem: Find the recorded EC50 belonging to CC(=O)N1N=C(c2c(-c3ccccc3)c3cc(Cl)ccc3[nH]c2=O)CC1c1ccc2c(ccn2C)c1 (stereo not shown) [Compound 45d] and report it.
Result: 18 µM

Problem: Find the recorded EC50 belonging to CCC(=O)N1N=C(c2c(-c3ccccc3)c3cc(Cl)ccc3[nH]c2=O)CC1c1ccc(F)cc1 (stereo not shown) [Compound 6d] and report it.
Result: 34 µM

Problem: Find the recorded EC50 belonging to CCn1ncc2cc(-c3ccc(C4CC(c5c(-c6ccccc6)c6cc(Cl)ccc6[nH]c5=O)=NN4C(=O)CCC(=O)O)cc3)ccc21 (stereo not shown) [Compound 30d] and report it.
Result: 15 µM

Problem: Find the recorded EC50 belonging to CCn1cc2cc(-c3ccc(C4CC(c5c(-c6ccccc6)c6cc(Cl)ccc6[nH]c5=O)=NN4C(=O)CCC(=O)O)cc3)ccc2n1 (stereo not shown) [Compound 31d] and report it.
Result: 17 µM

Problem: Find the recorded EC50 belonging to CCCn1cc(-c2ccc(C3CC(c4c(-c5ccccc5)c5cc(Cl)ccc5[nH]c4=O)=NN3C(=O)CCC(=O)O)cc2)cn1 (stereo not shown) [Compound 32d] and report it.
Result: 65 µM

Problem: Find the recorded EC50 belonging to O=C(O)CCC(=O)N1N=C(c2c(-c3ccccc3)c3cc(Cl)ccc3[nH]c2=O)CC1c1ccc(-c2ccc(Cl)cc2)cc1 (stereo not shown) [Compound 19d] and report it.
Result: 25 µM

Problem: Find the recorded EC50 belonging to CCn1cc2cc(C3CC(c4c(-c5ccccc5)c5cc(Cl)ccc5[nH]c4=O)=NN3C(=O)CCC(=O)O)ccc2n1 (stereo not shown) [Compound 25d] and report it.
Result: 28 µM

Problem: Find the recorded EC50 belonging to CCC(=O)N1N=C(c2c(-c3ccccc3)c3cc(Cl)ccc3[nH]c2=O)CC1c1ccc(OC)cc1 (stereo not shown) [Compound 35d] and report it.
Result: 19 µM

Problem: Find the recorded EC50 belonging to CCC(=O)N1N=C(c2c(-c3ccccc3)c3cc(Cl)ccc3[nH]c2=O)CC1c1ccc(Br)cc1 (stereo not shown) [Compound 34d] and report it.
Result: 19 µM

Problem: Find the recorded EC50 belonging to O=C(O)CCC(=O)N1N=C(c2c(-c3ccccc3)c3cc(Cl)ccc3[nH]c2=O)CC1c1ccc(C(F)(F)F)cc1 (stereo not shown) [Compound 16d] and report it.
Result: 29 µM

Problem: Find the recorded EC50 belonging to Cn1ccc2cc(C3CC(c4c(-c5ccccc5)c5cc(Cl)ccc5[nH]c4=O)=NN3C(=O)CCC(=O)O)ccc21 (stereo not shown) [Compound 22d] and report it.
Result: 2 µM

---

- Assay procedure: Solubility (as observed in cell culture media / stated)
- Format: physicochemical
- Test settings: HR assay medium (RPMI, 0.6% DMSO), kinetic from dmso stock; read-out: upper limit in terms of solubility
Observed property: solubility (µM)
Provide the reading as a plain figure in µM.

Problem: Find the recorded solubility belonging to CCC(=O)N1N=C(c2c(-c3ccccc3)c3cc(Cl)ccc3[nH]c2=O)CC1c1ccc(OC)cc1 (stereo not shown) [Compound 35d] and report it.
Result: 40

---

Task for the reader: assign each of the following compounds its reported EC50.
- Target under test: BRC4–RAD51 interaction (Homo sapiens, UniProt Q06609)
- Construct: purchased Creative Biomart (RAD51); Life Technologies (BRC4 peptide)
- Assay procedure: Competitive biochemical ELISA assay (biotinylated BRC4 peptide vs RAD51)
- Type: binding
- Test settings: competition with BRC4 for RAD51; triplicate, ± standard deviation; NA = not active; racemic mixtures unless enantiomer named; read-out: EC50 (μM) on ELISA assay
Provide the reading as a plain figure in µM.

Problem: What measured EC50 is associated with CC(=O)N1N=C(c2c(-c3ccccc3)c3cc(Cl)ccc3[nH]c2=O)CC1c1ccc(Br)cc1 (stereo not shown) [Compound 37d] on BRC4–RAD51 interaction (Homo sapiens, UniProt Q06609)?
Result: 38

Problem: What measured EC50 is associated with CCn1ncc2cc(C3CC(c4c(-c5ccccc5)c5cc(Cl)ccc5[nH]c4=O)=NN3C(C)=O)ccc21 (stereo not shown) [Compound 47d] on BRC4–RAD51 interaction (Homo sapiens, UniProt Q06609)?
Result: 40

Problem: What measured EC50 is associated with COc1ccc(-c2ccc(C3CC(c4c(-c5ccccc5)c5cc(Cl)ccc5[nH]c4=O)=NN3C(C)=O)cc2)cc1 (stereo not shown) [Compound 44d] on BRC4–RAD51 interaction (Homo sapiens, UniProt Q06609)?
Result: 70

Problem: What measured EC50 is associated with O=C(O)CCC(=O)N1N=C(c2c(-c3ccccc3)c3cc(Cl)ccc3[nH]c2=O)CC1c1ccc(-c2ccc(Br)cc2)cc1 (stereo not shown) [Compound 20d] on BRC4–RAD51 interaction (Homo sapiens, UniProt Q06609)?
Result: 20

Problem: What measured EC50 is associated with COc1ccc(-c2ccc(C3CC(c4c(-c5ccccc5)c5cc(Cl)ccc5[nH]c4=O)=NN3C(=O)CCC(=O)O)cc2)cc1 (stereo not shown) [Compound 21d] on BRC4–RAD51 interaction (Homo sapiens, UniProt Q06609)?
Result: 20

Problem: What measured EC50 is associated with O=C(O)CCC(=O)N1N=C(c2c(-c3ccccc3)c3cc(Cl)ccc3[nH]c2=O)CC1c1ccc(Cl)cc1 (stereo not shown) [Compound 11d] on BRC4–RAD51 interaction (Homo sapiens, UniProt Q06609)?
Result: 59

Problem: What measured EC50 is associated with CCCn1cc(-c2ccc(C3CC(c4c(-c5ccccc5)c5cc(Cl)ccc5[nH]c4=O)=NN3C(C)=O)cc2)cn1 (stereo not shown) [Compound 51d] on BRC4–RAD51 interaction (Homo sapiens, UniProt Q06609)?
Result: 46

---

- Target under test: recombinant human RAD51 (Homo sapiens, UniProt Q06609)
- Sequence (Q06609 whole entry): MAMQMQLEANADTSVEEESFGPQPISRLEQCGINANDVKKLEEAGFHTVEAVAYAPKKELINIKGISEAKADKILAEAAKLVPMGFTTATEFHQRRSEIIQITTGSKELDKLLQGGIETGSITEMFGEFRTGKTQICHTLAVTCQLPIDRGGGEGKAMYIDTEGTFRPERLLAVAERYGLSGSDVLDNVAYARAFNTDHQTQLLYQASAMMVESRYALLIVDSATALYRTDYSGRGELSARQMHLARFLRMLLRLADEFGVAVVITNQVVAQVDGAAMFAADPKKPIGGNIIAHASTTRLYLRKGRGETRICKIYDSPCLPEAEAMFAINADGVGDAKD
- Assay procedure: Microscale thermophoresis (MST) binding assay
- Test settings: labeled His-hRAD51, 35d up to 40 μM, three replicates, read-out: Kd (RAD51-35d interaction)
Observed property: Kd (µM)
Provide the reading as a plain figure in µM.

Problem: What measured Kd is associated with CCC(=O)N1N=C(c2c(-c3ccccc3)c3cc(Cl)ccc3[nH]c2=O)CC1c1ccc(OC)cc1 (stereo not shown) [Compound 35d] on recombinant human RAD51 (Homo sapiens, UniProt Q06609)?
Result: 11

---

Task for the reader: assign each of the following compounds its reported pEC50.
- Target under test: BRC4–RAD51 interaction (Homo sapiens)
- Construct: purchased Creative Biomart (RAD51); Life Technologies (BRC4 peptide)
- Assay procedure: Competitive biochemical ELISA assay (biotinylated BRC4 peptide vs RAD51)
- Format: binding
- Test settings: Table 2, compounds selected for cell-based study; read-out: EC50 ELISA
Entry type: numeric. Quantity: pEC50, the -log10 of concentration in molar units.

Problem: Find the recorded pEC50 belonging to COc1ccc(-c2ccc(C3CC(c4c(-c5ccccc5)c5cc(Cl)ccc5[nH]c4=O)=NN3C(=O)CCC(=O)O)cc2)cc1 (stereo not shown) [Compound 21d] and report it.
Result: 4.70

Problem: Find the recorded pEC50 belonging to CCC(=O)N1N=C(c2c(-c3ccccc3)c3cc(Cl)ccc3[nH]c2=O)CC1c1ccc(Br)cc1 (stereo not shown) [Compound 34d] and report it.
Result: 4.72

Problem: Find the recorded pEC50 belonging to CC(=O)N1N=C(c2c(-c3ccccc3)c3cc(Cl)ccc3[nH]c2=O)CC1c1ccc2c(ccn2C)c1 (stereo not shown) [Compound 45d] and report it.
Result: 4.74

Problem: Find the recorded pEC50 belonging to CCC(=O)N1N=C(c2c(-c3ccccc3)c3cc(Cl)ccc3[nH]c2=O)CC1c1ccc(Cl)cc1 (stereo not shown) [Compound 33d] and report it.
Result: 5.10

Problem: Find the recorded pEC50 belonging to CC(=O)N1N=C(c2c(-c3ccccc3)c3cc(Cl)ccc3[nH]c2=O)CC1c1ccc(C(C)(C)C)cc1 (stereo not shown) [Compound 39d] and report it.
Result: 4.82

Problem: Find the recorded pEC50 belonging to O=C(O)CCC(=O)N1N=C(c2c(-c3ccccc3)c3cc(Cl)ccc3[nH]c2=O)CC1c1ccc(F)cc1 (stereo not shown) and report it.
Result: 4.80

Problem: Find the recorded pEC50 belonging to O=C(O)CCC(=O)N1N=C(c2c(-c3ccccc3)c3cc(Cl)ccc3[nH]c2=O)CC1c1ccc(-c2ccc(Br)cc2)cc1 (stereo not shown) [Compound 20d] and report it.
Result: 4.70
